Reference for the values: patent US8415379B2

- system.tested: GABA A α5 (human receptors of composition α5β3γ2) (Homo sapiens, UniProt P18507+P31644)
- Construct: membrane homogenates used
- experiment.summary: [3H]flumazenil competition binding assay, human GABA A α5β3γ2 receptors in HEK293 cells
- protocol.conditions: displacement of 0.5 nM [3H]flumazenil, HEK293 membranes, 1 hour at 4° C., means of two determinations, read-out: hKi GABA A α5
We begin with a simple list: items and their reported pKi.
Worth noting: pKi values are minus log10 of concentrations stated in mol/L.

Answered cases to consult:
| molecule | value.type | experimental.result |
| --- | --- | --- |
| Cc1onc(-c2ccccn2)c1COc1ccc(C(=O)NCCO)nc1 [Example 14] | pKi | 8.11 |
| Cc1onc(-c2ccccn2)c1COc1ccc(C(=O)NCC2CC2)nc1 [Example 12] | pKi | 8.15 |
| Cc1onc(-c2ccccc2)c1COc1ccc(C(=O)NN2CCOCC2)nc1 [Example 5] | pKi | 7.77 |

Under GABA A α5 (human receptors of composition α5β3γ2) (Homo sapiens, UniProt P18507+P31644): pKi value of O=C(NCC(F)(F)F)c1ccc(OCc2c(-c3ccc(F)cc3)noc2CO)cn1 [Example 33] ?
7.99

Under GABA A α5 (human receptors of composition α5β3γ2) (Homo sapiens, UniProt P18507+P31644): pKi value of Cc1onc(-c2ccccc2)c1COc1ccc(C(=O)NCCO)nc1 [Example 1] ?
7.81

Under GABA A α5 (human receptors of composition α5β3γ2) (Homo sapiens, UniProt P18507+P31644): pKi value of CCC(CO)NC(=O)c1ccc(OCc2c(-c3ccccn3)noc2C)cn1 (racemic) [Example 20] ?
8.09

Under GABA A α5 (human receptors of composition α5β3γ2) (Homo sapiens, UniProt P18507+P31644): pKi value of Cc1onc(-c2ccccc2)c1COc1ccc(C(=O)NC(C)C)nc1 [Example 2] ?
8.05

Under GABA A α5 (human receptors of composition α5β3γ2) (Homo sapiens, UniProt P18507+P31644): pKi value of CC[C@@H](CO)NC(=O)c1ccc(OCc2c(-c3ccc(F)cc3)noc2CO)cn1 [Example 34] ?
8.08

Under GABA A α5 (human receptors of composition α5β3γ2) (Homo sapiens, UniProt P18507+P31644): pKi value of Cc1onc(-c2ccccc2)c1COc1ccc(C(=O)NC2CCOC2)nc1 (racemic) [Example 3] ?
7.86
